Taken from the supplement of paper PMC13380429.

- System: U2OS
- test.details: cell viability relative to DMSO; higher = less toxic
- recorded.conditions: 72 h; 10 nM
reported.endpoint: cell viability (%)
Reply numerically in %, unit not repeated.

N[C@@H](CCC(=O)N[C@@H](CS)C(=O)NCC(=O)O)C(=O)O; 97.3
CCCS(=O)(=O)Nc1ccc(F)c(C(=O)c2c[nH]c3ncc(Cl)cc23)c1F; 95.8
COc1cc2c(Nc3ccc(Cl)c(Cl)c3F)ncnc2cc1OC[C@@H]1C[C@@H]2CN(C)C[C@@H]2C1; 95.9
Cc1ccc2c(Cl)cc(Cl)c(O)c2n1; 102
CCn1c(=O)[nH]c2ccccc21; 94.3

Then this compound:
// returns reported cell viability for input CCOC(=O)[C@H](CCc1ccccc1)N[C@@H](C)C(=O)N1[C@H](C(=O)O)C[C@H]2CCCC[C@@H]21
92.6

----------
- Test system: Vero E6
- test.details: cell viability relative to DMSO; higher = less toxic
- recorded.conditions: 72 h; 1 nM
reported.endpoint: cell viability
Give your result as the value with the unit written after it.

Worked cases, answers included:
Cc1cc(C)n(-c2cccc([C@H](CC(=O)O)CN3CC[C@@H](CCc4ccc5c(n4)NCCC5)C3)c2)n1; 99.2%
O=C(O)C1=CCCN(CCON=C(c2ccccc2)c2ccccc2)C1; 90.4%
Cc1cc(S(=O)(=O)O)c2c(C)ccc(C(C)C)cc1-2 [sodium-gualenate]; 98%

// returns reported cell viability for input O=C(NCCNCC(O)COc1ccc(O)cc1)N1CCOCC1 (stereo unspecified)
93.8%

Moving on to CN(C)C(=O)Oc1cccc([N+](C)(C)C)c1
91.1%

Moving on to Oc1cc(CNC(=S)/C=C/c2cc(O)c(O)c(Br)c2)cc(O)c1O
89.7%

Moving on to CNC(=O)[C@H](Cc1ccccc1)NC(=O)[C@H](CC(C)C)[C@H](CSc1cccs1)C(=O)NO
93.4%

Moving on to N=C(N)SCCc1c[nH]cn1
103%

Moving on to CC(NC(C)(C)C)C(=O)c1cccc(Cl)c1 (stereo unspecified)
107%

Moving on to CCCS(=O)(=O)Nc1ccc(F)c(C(=O)c2c[nH]c3ncc(Cl)cc23)c1F
106%

Moving on to COc1cc2c(=O)c(-c3ccc(O)cc3)coc2cc1O
102%

Moving on to O=C(Nc1cnn2ccc(N3CCC[C@@H]3c3cc(F)ccc3F)nc12)N1CC[C@H](O)C1
97.9%

Moving on to C[C@]12CCC(=O)C=C1CC[C@@H]1[C@@H]2CC[C@@]2(C)[C@H]1CC[C@]2(C)O
92.6%

Moving on to CC1(C)O[C@@H]2[C@@H](CO[C@@]3(COS(N)(=O)=O)OC(C)(C)O[C@@H]23)O1 [topiramate]
89.5%

Moving on to Cc1c(C(N)=O)cc([N+](=O)[O-])cc1[N+](=O)[O-] [dinitolmide]
102%

Moving on to O=C(O)CNC(=O)c1nc(Cl)c2ccccc2c1O
100%

Moving on to CCCn1c(=O)c2[nH]c(C3CCCC3)nc2n(CCC)c1=O
106%

Moving on to Cn1nc(C(C)(C)C)cc1C(=O)N[C@@H](Cc1cccc(Cl)c1)C(=O)NCC#N
95%

Moving on to Cc1ccccc1N(C)C(=O)c1ccc([S+]([O-])c2nccs2)c([N+](=O)[O-])c1 (stereo unspecified)
103%

Moving on to O=C1CC2(CCCC2)CC(=O)N1CCNC[C@H]1COc2ccccc2O1
99.4%

Moving on to NS(=O)(=O)c1cc2c(cc1Cl)N=CNS2(=O)=O [chlorothiazide]
97.8%
